system name: KDR (Homo sapiens)
Sequence (P35968 20-1356): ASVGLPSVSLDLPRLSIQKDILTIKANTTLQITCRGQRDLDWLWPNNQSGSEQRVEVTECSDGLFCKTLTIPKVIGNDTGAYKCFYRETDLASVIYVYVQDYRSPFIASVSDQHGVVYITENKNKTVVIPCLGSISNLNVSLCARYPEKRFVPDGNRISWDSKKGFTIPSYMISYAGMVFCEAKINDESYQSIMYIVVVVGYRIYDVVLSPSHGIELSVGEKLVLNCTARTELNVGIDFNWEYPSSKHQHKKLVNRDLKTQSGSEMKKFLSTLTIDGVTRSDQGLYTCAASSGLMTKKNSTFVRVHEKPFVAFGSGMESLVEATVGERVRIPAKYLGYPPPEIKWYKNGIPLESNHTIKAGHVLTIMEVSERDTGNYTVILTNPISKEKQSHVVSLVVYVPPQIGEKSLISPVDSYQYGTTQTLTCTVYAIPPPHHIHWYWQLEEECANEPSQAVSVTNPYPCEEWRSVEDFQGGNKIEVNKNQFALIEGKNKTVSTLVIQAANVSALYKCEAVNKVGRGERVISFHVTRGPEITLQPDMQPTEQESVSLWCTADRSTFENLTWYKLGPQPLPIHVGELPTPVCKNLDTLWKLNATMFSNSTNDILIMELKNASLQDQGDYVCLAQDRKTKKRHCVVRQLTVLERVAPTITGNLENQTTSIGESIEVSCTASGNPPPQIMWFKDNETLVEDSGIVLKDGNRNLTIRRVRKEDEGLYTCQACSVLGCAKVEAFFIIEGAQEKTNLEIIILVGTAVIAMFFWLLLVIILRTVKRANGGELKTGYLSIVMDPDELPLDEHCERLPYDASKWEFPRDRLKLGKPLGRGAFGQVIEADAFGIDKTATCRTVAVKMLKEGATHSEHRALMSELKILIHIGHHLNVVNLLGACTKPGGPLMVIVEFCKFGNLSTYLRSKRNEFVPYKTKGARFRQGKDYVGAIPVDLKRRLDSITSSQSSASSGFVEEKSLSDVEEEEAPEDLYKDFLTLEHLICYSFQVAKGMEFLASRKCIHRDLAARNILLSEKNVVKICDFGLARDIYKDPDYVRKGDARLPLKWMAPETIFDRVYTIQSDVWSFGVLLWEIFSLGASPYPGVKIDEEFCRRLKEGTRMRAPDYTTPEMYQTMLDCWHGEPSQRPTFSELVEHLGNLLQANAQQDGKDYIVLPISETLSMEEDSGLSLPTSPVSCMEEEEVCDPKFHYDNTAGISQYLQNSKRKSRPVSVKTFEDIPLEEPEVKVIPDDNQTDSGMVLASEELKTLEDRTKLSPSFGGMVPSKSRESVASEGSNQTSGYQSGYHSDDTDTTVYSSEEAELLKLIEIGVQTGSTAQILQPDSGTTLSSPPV
procedure summary: KDR autophosphorylation ELISA in HUVEC cells
Type: cell-based
Set-up: endogenous in cells; host or cells: HUVEC (Lonza #C2519A)
condition description: Table 3 Cellular Activities, VEGF165-stimulated, phospho-KDR ELISA
pIC50: −log10 of the molar value.
In this section, each of the molecules is paired with its reported pIC50.

Input: Recorded pIC50 for COc1cc2nccc(Oc3ccc(NC(=O)c4cnc(C)c(-c5ccc(C(C)C)o5)c4O)cc3F)c2nc1OC , please?
Output: ≥ 7.00

Input: Entry COc1cc2nccc(Oc3ccc(NC(=O)c4cnc(C)c(-c5cccs5)c4O)cc3F)c2nc1OC please
Output: ≥ 7.00

Input: Entry COc1cnc2c(Oc3ccc(NC(=O)c4c(C)n(C)c(C)c(-c5ccco5)c4=O)cc3)ccnc2c1 please
Output: 6.00 to 6.52

Input: Entry COc1cc2nccc(Oc3ccc(NC(=O)c4c(C)ncc(-c5sccc5C)c4O)cc3F)c2nc1OC please
Output: ≥ 7.00

Input: Entry COc1cc2nccc(Oc3ccc(NC(=O)c4c(C)nc(C)c(-c5ccoc5)c4O)cc3F)c2nc1OC please
Output: ≥ 7.00

Input: Entry COc1cnc2c(Oc3ccc(NC(=O)c4cn(CCF)c(C)c(-c5ccsc5)c4=O)cc3F)ccnc2c1 please
Output: 6.00 to 6.52

Input: Entry COc1cnc2c(Oc3ccc(NC(=O)c4cnc(C)c(-c5ccc(C)s5)c4O)cc3F)ccnc2c1 please
Output: ≥ 7.00

* * *

In this section, each of the compounds is paired with its reported IC50.
system name: KDR (Homo sapiens)
procedure summary: KDR autophosphorylation ELISA in HUVEC cells
Assay type: cell-based
Design: endogenous in cells; host or cells: HUVEC (Lonza #C2519A)
condition description: Table 3 Cellular Activities, VEGF165-stimulated, phospho-KDR ELISA

CCc1ccc(-c2c(C)nc(C)c(C(=O)Nc3ccc(Oc4ccnc5cc(OC)c(OC)nc45)c(F)c3)c2O)o1; ≤ 100 nM
COc1cc2nccc(Oc3ccc(NC(=O)c4c(C)nc(C)c(-c5ccco5)c4O)cc3F)c2nc1OC; ≤ 100 nM
COc1cc2nccc(Oc3ccc(NC(=O)c4cnc(C)c(-c5cscn5)c4O)cc3F)c2nc1OC; ≤ 100 nM

Input: Recorded IC50 for COc1cc2nccc(Oc3ccc(NC(=O)c4c(C)ncc(-c5ccc(C=O)o5)c4O)cc3F)c2nc1OC , please?
Output: ≤ 100 nM

Input: Entry COCc1nc(C)c(-c2cccc(C)n2)c(O)c1C(=O)Nc1ccc(Oc2ccnc3cc(OC)c(OC)nc23)c(F)c1 please
Output: ≤ 100 nM

Input: Entry COc1cc2nccc(Oc3ccc(NC(=O)c4cc(C(C)=O)c(C)n(-c5ccco5)c4=O)cc3F)c2nc1OC please
Output: 300 to 1000 nM

Input: Entry COc1cc2nccc(Oc3ccc(NC(=O)c4ccc(C)n(-c5ccc(F)cn5)c4=O)cc3)c2nc1OC please
Output: ≤ 100 nM

Input: Entry COc1cc2nccc(Oc3ccc(NC(=O)c4c(C)ncc(-c5cccnc5)c4O)cc3F)c2nc1OC please
Output: ≤ 100 nM

Input: Entry COc1cc2nccc(Oc3ccc(NC(=O)c4c5n(c(C)c(-c6ccsc6)c4=O)CCOC5)cc3F)c2nc1OC please
Output: 100 to 300 nM

Input: Entry COc1cc2nccc(Oc3ccc(NC(=O)c4ncc(C)n(-c5ccc(F)cn5)c4=O)cc3F)c2nc1OC please
Output: ≤ 100 nM

Input: Entry COc1cc2nccc(Oc3ccc(NC(=O)c4c(C)nc(C)c(-c5ccc(F)cn5)c4O)cc3F)c2nc1OC please
Output: ≤ 100 nM

Input: Entry COc1cnc2c(Oc3ccc(NC(=O)c4cc(C(C)=O)c(C)n(-c5ccco5)c4=O)cc3F)ccnc2c1 please
Output: 300 to 1000 nM

Input: Entry COCCOc1cc2nccc(Oc3ccc(NC(=O)c4c(C)n(C)c(C)c(-c5coc6ccccc56)c4=O)cc3F)c2nc1OC please
Output: 300 to 1000 nM

Input: Entry COc1cc2nccc(Oc3ccc(NC(=O)c4cnc(C)c(-c5ccco5)c4O)cc3)c2nc1OC please
Output: ≤ 100 nM

Input: Entry COc1cnc2c(Oc3ccc(NC(=O)c4cn(CCF)c(C)c(-c5cc(C)cs5)c4=O)cc3F)ccnc2c1 please
Output: 300 to 1000 nM

Input: Entry COc1ccc2nccc(Oc3ccc(NC(=O)c4ccc(C)n(-c5ccc(F)cn5)c4=O)cc3F)c2c1 please
Output: ≤ 100 nM

Input: Entry C=Cc1ccc(-c2c(C)ncc(C(=O)Nc3ccc(Oc4ccnc5cc(OC)c(OC)nc45)c(F)c3)c2O)o1 please
Output: ≤ 100 nM
